- target_system: Ba/F3 Bcr-Abl/Y253F (Homo sapiens, UniProt P00519, Y253F, cells depend on it)
- Construct: fused on or other part: P11274 (Breakpoint cluster region protein)
- procedure_details: CCK-8 assay, Ba/F3 Bcr-Abl/Y253F
- Type: cell-based
- protocol_conditions: mouse, 72 h
assay_endpoint: GI50 (µM)

[[record]]
query_smiles = "CC(C)OC(=O)C=Cc1ccc(O)c(O)c1"
target_system = "Ba/F3 Bcr-Abl/Y253F (Homo sapiens, UniProt P00519, Y253F, cells depend on it)"
quantity_unit = "µM"
result_operator = "="
recorded_result = 5.2

[[record]]
query_smiles = "O=C(O)/C=C/c1ccc(O)c(O)c1"
target_system = "Ba/F3 Bcr-Abl/Y253F (Homo sapiens, UniProt P00519, Y253F, cells depend on it)"
quantity_unit = "µM"
result_operator = ">"
recorded_result = 100

[[record]]
query_smiles = "COC(=O)C=Cc1ccc(O)c(O)c1"
target_system = "Ba/F3 Bcr-Abl/Y253F (Homo sapiens, UniProt P00519, Y253F, cells depend on it)"
quantity_unit = "µM"
result_operator = "="
recorded_result = 17


###

Recorded GI50 by entry
- target_system: Ba/F3 Bcr-Abl/Q252H (Homo sapiens, UniProt P00519, Q252H, cells depend on it)
- Construct: fused on or other part: P11274 (Breakpoint cluster region protein)
- procedure_details: CCK-8 assay, Ba/F3 Bcr-Abl/Q252H
- Type: cell-based
- protocol_conditions: mouse, 72 h
assay_endpoint: GI50 (µM)

[[record]]
query_smiles = "CCOC(=O)C=Cc1ccc(O)c(O)c1"
assay_endpoint = "GI50"
quantity_unit = "µM"
result_operator = "="
recorded_result = 8.4

[[record]]
query_smiles = "O=C(O)/C=C/c1ccc(O)c(O)c1"
assay_endpoint = "GI50"
quantity_unit = "µM"
result_operator = ">"
recorded_result = 100

[[record]]
query_smiles = "COC(=O)C=Cc1ccc(O)c(O)c1"
assay_endpoint = "GI50"
quantity_unit = "µM"
result_operator = "="
recorded_result = 15.4


###

- target_system: Ba/F3 Bcr-Abl/E255V (Homo sapiens, UniProt P00519, E255V, cells depend on it)
- Construct: fused on or other part: P11274 (Breakpoint cluster region protein)
- procedure_details: CCK-8 assay, Ba/F3 Bcr-Abl/E255V
- Type: cell-based
- protocol_conditions: mouse, 72 h
Recorded GI50 by entry
assay_endpoint: GI50 (µM)

[[record]]
query_smiles = "O=C(O)/C=C/c1ccc(O)c(O)c1"
result_operator = ">"
recorded_result = 100

[[record]]
query_smiles = "CCOC(=O)C=Cc1ccc(O)c(O)c1"
result_operator = "="
recorded_result = 10.2

[[record]]
query_smiles = "CC(C)OC(=O)C=Cc1ccc(O)c(O)c1"
result_operator = "="
recorded_result = 9.9

[[record]]
query_smiles = "COC(=O)C=Cc1ccc(O)c(O)c1"
result_operator = "="
recorded_result = 18.9


Values from patent US20100010002A1
